// data source = ChEMBL document CHEMBL1201862

Target: Peroxisome proliferator-activated receptor gamma/Nuclear receptor coactivator 1 (Homo sapiens)
Sequence (P37231 whole entry): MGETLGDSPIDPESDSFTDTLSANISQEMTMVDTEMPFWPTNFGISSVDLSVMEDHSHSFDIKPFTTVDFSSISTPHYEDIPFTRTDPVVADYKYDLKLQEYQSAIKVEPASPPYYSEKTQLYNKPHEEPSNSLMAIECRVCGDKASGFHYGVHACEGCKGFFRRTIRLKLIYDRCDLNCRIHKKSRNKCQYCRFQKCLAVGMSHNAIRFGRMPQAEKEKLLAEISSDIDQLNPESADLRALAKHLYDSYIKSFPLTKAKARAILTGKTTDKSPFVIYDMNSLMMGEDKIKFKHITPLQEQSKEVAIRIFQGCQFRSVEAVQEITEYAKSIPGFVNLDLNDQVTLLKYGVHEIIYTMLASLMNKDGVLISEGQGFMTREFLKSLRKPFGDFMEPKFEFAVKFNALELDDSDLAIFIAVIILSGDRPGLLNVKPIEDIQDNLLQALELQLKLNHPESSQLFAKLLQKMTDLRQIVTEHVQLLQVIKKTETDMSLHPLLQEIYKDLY
Sequence (Q15788 whole entry, further chain): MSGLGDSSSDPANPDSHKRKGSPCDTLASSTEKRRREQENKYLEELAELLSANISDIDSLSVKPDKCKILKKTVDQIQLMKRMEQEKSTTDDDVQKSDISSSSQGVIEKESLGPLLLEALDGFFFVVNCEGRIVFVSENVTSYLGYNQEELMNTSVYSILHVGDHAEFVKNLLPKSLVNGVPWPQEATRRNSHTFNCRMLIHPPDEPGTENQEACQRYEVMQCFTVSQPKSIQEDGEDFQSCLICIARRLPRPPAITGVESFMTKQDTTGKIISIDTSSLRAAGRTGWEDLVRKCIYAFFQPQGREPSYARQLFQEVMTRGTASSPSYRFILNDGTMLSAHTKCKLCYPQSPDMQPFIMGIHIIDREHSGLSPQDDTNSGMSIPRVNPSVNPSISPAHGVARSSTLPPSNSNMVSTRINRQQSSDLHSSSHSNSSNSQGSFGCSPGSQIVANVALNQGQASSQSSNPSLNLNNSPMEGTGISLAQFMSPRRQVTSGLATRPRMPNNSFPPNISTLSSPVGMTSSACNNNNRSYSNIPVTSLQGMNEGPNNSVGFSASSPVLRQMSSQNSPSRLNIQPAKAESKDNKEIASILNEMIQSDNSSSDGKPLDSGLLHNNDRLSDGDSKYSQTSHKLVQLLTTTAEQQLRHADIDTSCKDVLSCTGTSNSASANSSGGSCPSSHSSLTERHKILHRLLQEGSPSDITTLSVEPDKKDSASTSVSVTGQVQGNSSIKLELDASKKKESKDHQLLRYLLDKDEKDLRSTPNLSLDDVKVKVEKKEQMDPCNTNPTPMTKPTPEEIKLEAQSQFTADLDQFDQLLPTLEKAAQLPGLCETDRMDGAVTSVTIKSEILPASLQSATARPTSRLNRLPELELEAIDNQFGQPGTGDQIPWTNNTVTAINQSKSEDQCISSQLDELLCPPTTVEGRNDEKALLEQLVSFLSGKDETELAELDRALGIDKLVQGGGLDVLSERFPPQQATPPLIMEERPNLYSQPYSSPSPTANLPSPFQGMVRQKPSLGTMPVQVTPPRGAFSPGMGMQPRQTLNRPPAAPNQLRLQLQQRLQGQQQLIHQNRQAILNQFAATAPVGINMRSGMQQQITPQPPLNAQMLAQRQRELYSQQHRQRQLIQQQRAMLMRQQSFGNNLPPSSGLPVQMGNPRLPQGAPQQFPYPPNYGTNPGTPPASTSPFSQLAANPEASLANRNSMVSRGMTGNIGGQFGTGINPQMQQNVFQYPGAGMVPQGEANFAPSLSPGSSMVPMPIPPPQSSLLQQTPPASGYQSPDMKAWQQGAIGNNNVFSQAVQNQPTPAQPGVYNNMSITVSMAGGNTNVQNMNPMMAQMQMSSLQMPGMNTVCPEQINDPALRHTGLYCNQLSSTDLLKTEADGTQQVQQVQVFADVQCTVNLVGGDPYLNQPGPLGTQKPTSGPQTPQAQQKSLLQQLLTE
Assay: TR-FRET dose response biochemical High Throughput Screening assay for agonists of the steroid receptor coactivator 1 (SRC-1) recruitment by the peroxisome proliferator-activated receptor gamma (PPAR gamma): non-selective agonists. [Related pubchem assays (depositor defined):AID1300, AID1808, AID504735, AID631]
Format: protein assay
Calls of active or inactive are those of the source. Rule as the data show it: active = EC50 of 10 µM or less and inactive = more.
Outcomes: label 1 (active), label 0 (inactive)

# compound, discreteLabel
rows = [
    ("CCn1c(=O)cc(SCC(=O)N2CCN(c3ccccc3OC)CC2)c2ccccc21", "label 0"),
    ("Cc1cc2cc(CNC(=O)c3ccc(S(=O)(=O)N4CCOCC4)cc3)ccc2n1C", "label 1"),
    ("CCC(OC(=O)c1cc2sccc2n1C)C(=O)NCc1ccco1 (centres undefined)", "label 0"),
    ("N#CCCN1CCN(C(=S)c2ccc(-c3ccc(Cl)cc3)o2)CC1", "label 0"),
]
